Please provide measured inhibition for the entries that follow.
Molecular target: Protein deacetylase HDAC6 (Homo sapiens)
Conditions: at 10 µM
Hit rate of the full screen: of about 5,600 compounds, about 150 (2.7%) showed an effect of 50% or more. Many of the other results were omitted from the sample, so strong results are more common in it than they were.

>>> df
                                   molecule    endpoint  measurement
0  NCC(=O)N1C[C@H](NC(=O)c2ccccc2)C[C@H]1C(=O)O  inhibition        -0.8%
1                      N=C(N)NCCSSCCNC(=N)N  inhibition       -3.98%
2  CCCC(=O)N1CCCN(c2nc(N)c3cc(OC)c(OC)cc3n2)CC1  inhibition        15.5%
3  CCn1c(=O)c(-c2ccc(Cl)cc2Cl)cc2cnc(Nc3ccc(N4CCNCC4)c(F)c3)nc21  inhibition       -3.08%
4  O=S(=O)(NCCCCCCc1ccccc1)c1cccc2c(Cl)cccc12  inhibition       -3.75%
5   N#C/C(=C\c1ccc(O)c(O)c1)C(=O)NCc1ccccc1  inhibition        54.9%
6  CC(C)(C)/[N+]([O-])=C/c1ccc(S(=O)(=O)O)cc1S(=O)(=O)O  inhibition       -5.01%
7  O=C(NCC1CN(c2ccc(N3CCOCC3=O)cc2)C(=O)O1)c1ccc(Cl)s1 (centres undefined)  inhibition        2.41%

Record inhibition per entry; entries follow.
1. O=C1NC(=O)/C(=C/c2ccc3c(c2)OC(F)(F)O3)S1
2. C/C(=N\c1ccccc1N)c1c(C)cc(=O)n(O)c1O
3. Cc1ncc(CO)c(/C=N/NC(=O)c2ccncc2)c1O
4. N#C/C(=C\c1ccc(O)c(O)c1)C(=O)NCCCCc1ccccc1
5. N#C/C(=C\c1cccn1S(=O)(=O)c1cccc([N+](=O)[O-])c1)S(=O)(=O)c1ccc(F)cc1

Key:
1. -1.91%
2. 2.45%
3. -0.7%
4. 1.74%
5. 6.35%

----------
Molecular target: Protein deacetylase HDAC6 (Homo sapiens)
Sequence (whole entry): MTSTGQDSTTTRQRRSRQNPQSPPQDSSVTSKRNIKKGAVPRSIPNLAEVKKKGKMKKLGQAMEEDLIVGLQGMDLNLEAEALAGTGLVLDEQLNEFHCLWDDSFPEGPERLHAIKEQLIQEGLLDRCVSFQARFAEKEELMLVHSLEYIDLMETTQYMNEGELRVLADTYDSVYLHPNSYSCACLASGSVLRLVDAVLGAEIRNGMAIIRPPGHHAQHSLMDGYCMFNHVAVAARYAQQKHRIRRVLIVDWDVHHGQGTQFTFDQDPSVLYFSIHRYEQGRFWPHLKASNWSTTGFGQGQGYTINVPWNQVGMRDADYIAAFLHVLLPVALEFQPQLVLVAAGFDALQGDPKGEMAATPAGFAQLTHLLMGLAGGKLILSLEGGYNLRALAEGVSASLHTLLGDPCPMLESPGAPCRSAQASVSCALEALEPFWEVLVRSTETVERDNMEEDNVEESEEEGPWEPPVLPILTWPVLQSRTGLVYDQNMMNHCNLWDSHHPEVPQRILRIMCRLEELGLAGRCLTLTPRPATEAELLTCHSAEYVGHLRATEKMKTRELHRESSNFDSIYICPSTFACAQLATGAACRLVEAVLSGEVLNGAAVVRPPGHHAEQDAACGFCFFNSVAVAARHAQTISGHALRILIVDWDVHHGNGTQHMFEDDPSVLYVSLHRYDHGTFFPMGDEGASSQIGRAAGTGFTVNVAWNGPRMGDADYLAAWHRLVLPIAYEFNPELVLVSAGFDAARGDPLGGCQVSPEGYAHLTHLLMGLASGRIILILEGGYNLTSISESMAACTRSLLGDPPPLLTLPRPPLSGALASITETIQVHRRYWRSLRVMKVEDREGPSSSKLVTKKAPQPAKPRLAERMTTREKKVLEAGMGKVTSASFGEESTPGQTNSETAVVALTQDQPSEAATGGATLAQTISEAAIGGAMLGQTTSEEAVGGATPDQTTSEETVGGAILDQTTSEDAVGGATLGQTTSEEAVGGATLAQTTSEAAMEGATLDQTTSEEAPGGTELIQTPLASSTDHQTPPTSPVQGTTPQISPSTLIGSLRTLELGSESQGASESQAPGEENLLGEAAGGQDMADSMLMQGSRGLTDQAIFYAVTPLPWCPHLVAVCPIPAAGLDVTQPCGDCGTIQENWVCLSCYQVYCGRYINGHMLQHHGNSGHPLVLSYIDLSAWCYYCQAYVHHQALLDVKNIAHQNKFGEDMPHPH
Conditions: at 10 µM
Screen size: about 5,600 compounds; about 150 (2.7%) showed an effect of 50% or more. Shown is part of a subset that was picked to be rich in strong results.
ENDPOINT: inhibition (%)
Give bare numbers, in %.

Worked cases, inhibition given:
In [3]: df
Out[3]:
                                   molecule  measurement
0  COc1ccc([C@@H]2CC(=O)c3c(O)cc(O)cc3O2)cc1O         31.5
1  COc1cc2c(NC3CCN(C)CC3)nc(N3CCCN(C)CC3)nc2cc1OCCOCCN(C)C         4.62
2  O=C(Nc1ccc(C(O)(C(F)(F)F)C(F)(F)F)cc1)c1ccc(C(F)(F)F)cc1         0.41
3  CC[C@@H](Nc1c(Nc2cccc(C(=O)N(C)C)c2O)c(=O)c1=O)c1ccc(C)o1        -5.03
4        c1ccc(Cn2c(N3CCNCC3)nc3ccccc32)cc1         -7.7
5   O=C(NCCO)c1cc(C(=O)NCCO)cc(C(=O)NCCO)c1        -2.63
6                            O=Cc1ccc(CO)o1        -2.99
7  CNCCCC1(c2ccccc2)OC(C)(C)c2ccccc21 (stereo unspecified)         -1.2
8              O=C1Nc2c(ccc(Cl)c2Cl)/C1=N\O         1.23
9  CC(=O)NC[C@H]1CN(c2ccc(N3CCN(C(=O)CO)CC3)c(F)c2)C(=O)O1        -2.46

// next item, inhibition requested
Exercise: For the record O=C(O)c1ccc(CN2CCC(CN[C@@H]3C[C@H]3c3ccccc3)CC2)cc1 , what value of inhibition is listed for Protein deacetylase HDAC6 (Homo sapiens)?
Key: 8.19

----------
Provide the reported inhibition of each item.
Target: Protein deacetylase HDAC6 (Homo sapiens) (UniProt Q9UBN7)
Sequence (whole entry): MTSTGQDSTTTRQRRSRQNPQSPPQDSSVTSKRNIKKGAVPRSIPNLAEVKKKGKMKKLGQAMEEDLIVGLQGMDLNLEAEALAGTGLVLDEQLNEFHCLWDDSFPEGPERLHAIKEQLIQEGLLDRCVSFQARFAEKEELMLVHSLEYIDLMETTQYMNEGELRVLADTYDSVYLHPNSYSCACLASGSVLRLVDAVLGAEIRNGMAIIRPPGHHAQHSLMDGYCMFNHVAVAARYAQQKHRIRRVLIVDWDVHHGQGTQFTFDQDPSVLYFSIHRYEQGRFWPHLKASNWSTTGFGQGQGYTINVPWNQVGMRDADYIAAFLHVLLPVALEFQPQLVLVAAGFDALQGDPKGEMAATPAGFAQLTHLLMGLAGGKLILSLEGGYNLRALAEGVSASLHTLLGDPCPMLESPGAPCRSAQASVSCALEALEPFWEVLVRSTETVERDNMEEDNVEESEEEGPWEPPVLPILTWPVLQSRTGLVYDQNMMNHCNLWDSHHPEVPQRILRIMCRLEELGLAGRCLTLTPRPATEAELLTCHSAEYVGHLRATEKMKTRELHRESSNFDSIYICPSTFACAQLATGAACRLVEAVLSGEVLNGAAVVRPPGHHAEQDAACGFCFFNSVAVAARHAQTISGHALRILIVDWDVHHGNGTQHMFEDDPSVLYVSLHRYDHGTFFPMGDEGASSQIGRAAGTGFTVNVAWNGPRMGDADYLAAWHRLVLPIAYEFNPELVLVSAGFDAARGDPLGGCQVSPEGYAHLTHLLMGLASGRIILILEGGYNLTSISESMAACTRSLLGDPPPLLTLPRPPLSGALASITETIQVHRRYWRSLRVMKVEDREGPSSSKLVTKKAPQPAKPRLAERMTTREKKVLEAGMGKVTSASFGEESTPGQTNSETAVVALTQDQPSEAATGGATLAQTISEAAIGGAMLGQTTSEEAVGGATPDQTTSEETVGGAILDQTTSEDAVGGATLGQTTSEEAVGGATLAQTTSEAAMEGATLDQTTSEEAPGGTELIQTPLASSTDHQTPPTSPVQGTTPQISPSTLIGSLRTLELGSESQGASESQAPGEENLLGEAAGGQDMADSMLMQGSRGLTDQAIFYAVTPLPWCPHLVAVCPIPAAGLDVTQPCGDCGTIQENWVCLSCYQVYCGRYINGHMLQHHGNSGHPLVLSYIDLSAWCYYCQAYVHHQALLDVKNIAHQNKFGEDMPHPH
Settings: at 10 µM
The whole screen tested about 5,600 compounds, of which about 150 (2.7%) showed an effect of 50% or more. What follows is part of a selection rich in strong results, with near analogues and random picks from the rest.
Give bare numbers, in %.

Some compounds with recorded inhibition:
                                   compound                            assayed_target  measurement
0                       O=c1[nH]cnc2ccccc12  Protein deacetylase HDAC6 (Homo sapiens) (UniProt Q9UBN7)        -1.07
1                   Nc1n[nH]c2nc3ccccc3nc12  Protein deacetylase HDAC6 (Homo sapiens) (UniProt Q9UBN7)         33.5
2  Cn1cc(-c2ccc(S(=O)(=O)n3ccc(/C=C/C(=O)Nc4ccccc4N)c3)cc2)cn1  Protein deacetylase HDAC6 (Homo sapiens) (UniProt Q9UBN7)          9.5

Return reported inhibition values for all items listed beneath this line.
1. CNc1cc(OC)c(C(=O)N[C@@H]2CCN(Cc3ccccc3)[C@@H]2C)cc1Cl.CNc1cc(OC)c(C(=O)N[C@H]2CCN(Cc3ccccc3)[C@H]2C)cc1Cl
2. C=C1CC/C=C(\C)CC[C@@H]2[C@@H]1CC2(C)C
3. N#CCNC(=O)c1ccc(-c2ccnc(Nc3ccc(N4CCOCC4)cc3)n2)cc1
4. COc1ccc(C(=O)C2CCN(CC(=O)N(Cc3nc4c(c(=O)[nH]3)COCC4)CC3CC3)CC2)cc1
5. O=C(O)CC/C=C\C[C@@H]1CO[C@H](c2ccccc2Cl)O[C@@H]1c1ccccc1O
6. O=C(O)Cc1cc2ccccc2nc1C(=O)O
7. O=C(/C=C/c1ccc(O)c(O)c1)OCCc1ccccc1
8. Oc1cc(O)cc(/C=C/c2ccc(O)c(O)c2)c1

Key:
7.84
2.39
-5.68
-1.1
11.4
6.45
13.8
74
